Sourced from patent US20080026996A1

Tgt: human VPAC1 (Homo sapiens)
Sequence (P32241 31-457): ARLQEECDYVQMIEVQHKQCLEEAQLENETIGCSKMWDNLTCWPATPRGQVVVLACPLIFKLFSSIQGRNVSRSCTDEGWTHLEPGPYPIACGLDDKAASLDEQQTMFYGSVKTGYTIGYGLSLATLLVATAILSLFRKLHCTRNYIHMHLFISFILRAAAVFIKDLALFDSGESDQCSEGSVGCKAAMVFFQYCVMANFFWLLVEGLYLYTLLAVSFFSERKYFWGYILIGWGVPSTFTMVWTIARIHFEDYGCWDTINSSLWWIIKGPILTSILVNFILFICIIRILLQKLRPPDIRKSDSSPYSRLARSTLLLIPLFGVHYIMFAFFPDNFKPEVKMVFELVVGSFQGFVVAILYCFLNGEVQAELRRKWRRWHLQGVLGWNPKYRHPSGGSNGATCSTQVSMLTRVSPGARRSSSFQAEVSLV
Measurement protocol: Filter binding assay, membranes of cells transiently transfected with human VPAC1, 125I-labeled VIP tracer (Table 2)
Set-up: expressed in transfected cells
Experimental context: read-out: Human VPAC1 Receptor Binding
Where no end group is shown, it is not given here. [ ]: non-standard residue; d: D form. The star is where a group is joined. Nle = CCCC[C@H](N)C(=O)O; Hexanoyl = CCCCCC(=O)*; Aib = CC(C)(N)C(=O)O
Property: IC50

# count of solved cases: 2
substance="Hexanoyl-HSDAVFTDNYTRLRKQVAATKYLQSIKNKRYGGPSSGAPPPS [Agonist P152]" meas_value="0.514 µM"
substance="Hexanoyl-HSDAVFTDNYTRL[Aib]KQVAALKYLQSIKNKRYGGPSSGAPPPS [Agonist P259]" meas_value="3.46 µM"

[ask] Could you share which IC50 value was measured for Hexanoyl-HSDAVFTDQYTRLLAKLALQKYLQSIKQKRYGGPSSGAPPPS [Agonist P192] ?
[reply] 1.43 µM

[ask] And for Hexanoyl-HSDAVFTDNYTRLR[Aib]Q[Nle]AA[Aib]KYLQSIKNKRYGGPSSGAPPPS [Agonist P325] ?
[reply] > 3 µM

[ask] Cool, now Hexanoyl-HSDAVFTDNYTRLRKQVAAKKYLQLIKNKRYGGPSSGAPPPS [Agonist P114]
[reply] 0.171 µM

[ask] // next record Hexanoyl-HSDAVFTDNYTRL[Aib]KQVAAVKYLQSIKNKRYGGPSSGAPPPS [Agonist P269]
[reply] > 3 µM

[ask] Field entry: Hexanoyl-HSDAVFTDNYTRLRKQVAAKKYLQSLKNKRYGGPSSGAPPPS [Agonist P107]
[reply] 0.122 µM

[ask] Hexanoyl-H[dA]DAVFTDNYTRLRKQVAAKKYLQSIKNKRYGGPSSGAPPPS [Agonist P101] , same question.
[reply] 0.0936 µM
